- ASSAYED SYSTEM: Protein kinase C alpha type (Homo sapiens);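 further: each value is the mean percent inhibition of PKC-alpha kinase activity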
- APPLIED CONDITIONS: at 0.1 µM
REPORTED METRIC: inhibition (%)

1) CN(C)C(=O)O[C@@H]1CN[C@@H](C#Cc2cc3ncnc(Nc4ccc(OCc5cccc(F)c5)c(Cl)c4)c3s2)C1    0.33
2) N#Cc1cccc(Nc2nccc(-c3cnn4ncccc34)n2)c1    26.2
3) NS(=O)(=O)c1ccc(-c2cc3ccncc3cc2OCc2ccccc2)cc1    0.12
4) COc1cccc(-n2nc(C)c3c(N/N=C(\C)c4ccncc4)ncnc32)c1    -0.84
5) O=C1Nc2ccc(-c3cccnc3)cc2C1=Cc1cc(Br)c(O)c(Br)c1    1.72
6) Cc1ccc(O)cc1Nc1ccnc2ccc(S(C)(=O)=O)cc12    1.78
7) NC(=O)c1cccc(Nc2nccc(Nc3cccc(F)c3)n2)c1    0.15
8) CCn1c(-c2nonc2N)nc2c(C#CC(C)(C)O)nc(OCCNC)cc21    0.49
9) CN1CCN(C(=O)c2ccc(NC(=O)Nc3ccc(N(C)c4ccnc(Nc5ccc(CS(C)(=O)=O)cc5)n4)cc3)cc2)CC1    -0.39
10) CC(C)c1ccc(Nc2nccc(-c3cnn4ncccc34)n2)cc1    0.38
11) NS(=O)(=O)c1ccc(Nc2cc(-c3cccc(O)c3)n[nH]2)cc1    1.01
12) CN(C)C(=O)O[C@H]1CN[C@H](C#Cc2cc3ncnc(Nc4ccc(OCc5cccc(F)c5)c(Cl)c4)c3s2)C1    0.57
13) Cc1ccc2c(c1)/C(=N/Nc1ccc(S(N)(=O)=O)cc1)C(=O)N2    0.13
14) O=S(=O)(CCOCc1ccc(-c2ccc3ncnc(Nc4ccc(OCc5cccc(F)c5)c(Cl)c4)c3c2)o1)c1ccccc1    0.23
15) Cc1cc(O)cc(C)c1/C=C/c1cncc(C(=O)N(C)C)c1    0.28
16) NS(=O)(=O)c1cccc(Nc2cc(-c3ccc(F)cc3)n[nH]2)c1    0.02
17) c1ccc(Nc2ncc(-c3ccccc3)o2)cc1    1.37
18) NS(=O)(=O)c1cccc(-c2cc3ccncc3cc2OCc2ccccc2)c1    1.18
19) NS(=O)(=O)c1ccc(N/N=C2\C(=O)Nc3ccc(Cl)cc32)cc1    0.69
20) Nc1nccc(-c2c(-c3ccc(F)cc3)ncn2CCCN2CCOCC2)n1    0.84
21) Cc1ccc(C(=O)NC2CC2)cc1-c1ccc2[nH]ncc2c1    -0.47
22) CCOc1nccc2c1nc(-c1nonc1N)n2CC    -0.03
23) Cc1nc(-c2ccccc2)n2nc(NCCCN3CCOCC3)ncc12    -0.23
24) Cc1ccc(NC(=O)CC2CC2)cc1-c1ccc(C(=O)NCC2CC2)cc1    0.78
25) C[C@@H](Oc1cc(-n2cnc3ccc(OC[C@@H](O)CO)cc32)sc1C(N)=O)c1ccccc1Cl    -0.25
26) [O-][S+]1CCN(Cc2ccc(-c3ccc4ncnc(Nc5ccc(OCc6ccccc6)c(Cl)c5)c4c3)o2)CC1    0.05
27) COC(=O)Nc1nc2cc(Oc3ccc(NC(=O)Nc4cccc(Br)c4)cc3)ccc2[nH]1    1.04
28) COc1cc(/C=N/Nc2ncnc3c2cnn3C(C)C)ccc1O    0.6

----------
- ASSAYED SYSTEM: Serine/threonine-protein kinase BRSK2 (Homo sapiens) (UniProt Q8IWQ3);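 further: mean kinase inhibition reported within the GSK PKIS dataset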
- Sequence (Q8IWQ3 whole entry): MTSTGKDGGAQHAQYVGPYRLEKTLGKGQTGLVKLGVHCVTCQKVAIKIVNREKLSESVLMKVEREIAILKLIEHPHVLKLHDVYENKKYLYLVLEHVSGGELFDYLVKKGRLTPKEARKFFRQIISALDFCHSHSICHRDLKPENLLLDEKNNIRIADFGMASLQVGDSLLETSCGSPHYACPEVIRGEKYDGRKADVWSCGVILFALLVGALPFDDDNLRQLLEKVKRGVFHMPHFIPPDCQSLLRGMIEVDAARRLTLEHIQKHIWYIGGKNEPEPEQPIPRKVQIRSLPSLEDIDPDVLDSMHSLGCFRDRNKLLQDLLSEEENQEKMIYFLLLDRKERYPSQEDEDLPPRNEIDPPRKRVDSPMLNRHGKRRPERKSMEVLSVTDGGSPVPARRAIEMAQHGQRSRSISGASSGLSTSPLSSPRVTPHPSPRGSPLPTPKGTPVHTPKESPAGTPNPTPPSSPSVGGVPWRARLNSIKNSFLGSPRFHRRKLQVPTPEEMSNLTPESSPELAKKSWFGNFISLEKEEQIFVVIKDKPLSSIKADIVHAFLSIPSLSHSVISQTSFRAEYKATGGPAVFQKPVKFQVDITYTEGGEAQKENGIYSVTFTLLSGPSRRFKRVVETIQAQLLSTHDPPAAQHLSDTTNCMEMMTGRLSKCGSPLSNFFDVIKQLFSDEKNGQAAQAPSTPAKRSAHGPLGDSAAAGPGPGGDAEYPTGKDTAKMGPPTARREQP
- APPLIED CONDITIONS: at 1 µM
inhibition listing for selected compounds.
REPORTED METRIC: inhibition (%)

1. CN1CCN(C(=O)c2ccc(NC(=O)Nc3ccc(N(C)c4ccnc(Nc5ccc(CS(C)(=O)=O)cc5)n4)cc3)cc2)CC1    7.68
2. Cc1ccc(O)cc1Nc1ccnc2ccc(S(C)(=O)=O)cc12    5.1
3. O=C(Nc1ccc(Oc2ccc3[nH]c(NC(=O)c4ccco4)nc3c2)cc1)Nc1cc(C(F)(F)F)ccc1F    1.01
4. Nc1nccc(-c2c(-c3ccc(F)cc3)nn3cc(C(F)(F)F)ccc23)n1    -0.77
5. COc1cccc(-n2ncc3c(N/N=C/c4ccc(C)cc4)ncnc32)c1    12.7
6. CCn1c(-c2nonc2N)nc2c(C#CC(C)(C)O)nc(OCCNC)cc21    4.81
7. CCCN1CCCC(c2ccc(Nc3nc(Nc4cc(F)ccc4C(N)=O)c4cc[nH]c4n3)c(OC)c2)C1 (stereo not given)    2.9
8. ON=C1CCc2cc(-c3nc(C4CCNCC4)[nH]c3-c3ccncc3)ccc21    1.99
9. Cc1ccc2c(c1)/C(=N/Nc1ccc(S(N)(=O)=O)cc1)C(=O)N2    12.8
10. Oc1cccc(-c2nc(-c3ccccc3)[nH]c2-c2ccncc2)c1    4.34
11. N#Cc1cccc(Nc2nccc(-c3cnn4ncccc34)n2)c1    12.1
12. COC(=O)Nc1nc2cc(Oc3ccc(NC(=O)Nc4cccc(Br)c4)cc3)ccc2[nH]1    0.84
13. O=C1Nc2ccc(-c3cccnc3)cc2C1=Cc1cc(Br)c(O)c(Br)c1    2.32
14. Cc1cc(Cl)cc2c1NC(=O)C2=NNc1ccc(S(N)(=O)=O)cc1    3.77
15. OCc1ccc(-c2nc(-c3ccccn3)c(-c3ccc4c(c3)OCO4)[nH]2)cc1    0.59
